- Tested on: HEK-293T
- assay-remarks: Incucyte cell viability with HEK293T; further: unitless GR value; below 1 slowed growth and below 0 cell loss
- Format: toxicity, cell-based
- condition-notes: human, 12 h, 10 µM, compound concentration 10 uM, replicate number 1
reported-property: Growth Rate

| compound | observed-result |
| --- | --- |
| O=C([O-])c1cc2cc(Cc3cccnc3)ccc2o1.[Na+] | 0.56 |
| COc1cc(N2CCC(N3CCN(C)CC3)CC2)ccc1Nc1ncc(Cl)c(Nc2ccccc2S(=O)(=O)C(C)C)n1 [TAE-684] | -0.93 |
| CC(C)n1cc(-c2ccc(N3CCN(C)CC3)c(NC(=O)c3ccc(-c4ccncc4)o3)c2)cn1 | -0.36 |
| COP(=O)(CCC(N)C(=O)O)Oc1cccc(CC(=O)O)c1 (stereo unspecified) | 0.97 |
| O=C(Nc1cccc(C(F)(F)F)c1)c1cccc(-n2cc(-c3ccco3)nn2)c1 | 0.8 |
| Cn1cc(NC(=O)c2ccc3nc4n(c3c2)CCCNC4=O)nc1C(=O)NC1CCCC1 | 0.69 |
| Cc1ccc(S(=O)(=O)Nc2ccc(-n3nc(C(F)(F)F)cc3C(F)(F)F)cc2)cc1 | 0.58 |
| Cc1cc(OCCC(C)(C)O)cc(C)c1-c1ccc(F)c2c1CC[C@H]2Oc1ccc2c(c1)OC[C@H]2CC(=O)O | 0.91 |
| CCCCCNC(=O)N1CCC(CN(Cc2ccc(Cl)cc2)Cc2ccc([N+](=O)[O-])s2)C1 (stereo unspecified) [SR9011] | 0.42 |
| CC1(C)CCC[C@]2(C)[C@@H](C=O)C(C=O)=CC[C@@H]12 [POLYGODIAL] | 0.22 |
| CN1CCN(c2ccc(C(=O)Nc3n[nH]c4ccc(Cc5cc(F)cc(F)c5)cc34)c(NC3CCOCC3)c2)CC1 [ENTRECTINIB] | -0.89 |
| O=C(Nc1ccccc1C(=O)O)c1cc(S(=O)(=O)c2ccccc2)ccc1Cl | 0.52 |
| CN1C(=O)Cc2ccc(-c3ccc(C[C@@H](C#N)NC(=O)[C@@H]4N[C@H]5CC[C@@H]4C5)c(F)c3)cc21 | 0.07 |
| CN(C)C/C=C/C(=O)Nc1cc2c(Nc3ccc(F)c(Cl)c3)ncnc2cc1OC[C@@H]1CCCO1 | -0.36 |
| Cl.Cl.NC1(c2ccc(-c3nc4ccn5c(=O)[nH]nc5c4cc3-c3ccccc3)cc2)CCC1 | -0.64 |
| COC[C@@H](C)N[C@H]1CC[C@H](Nc2cc(-c3cccc(NCC4(C#N)CCOCC4)n3)c(Cl)cn2)CC1 | 0.2 |
| COCCCS(=O)(=O)c1cc(C)c(-c2ccc(F)c3c2CC[C@H]3Oc2ccc3c(c2)OC[C@H]3CC(=O)O)c(C)c1 | 0.83 |
| CN1CCN(c2ccnc(NCCc3ccccc3)n2)CC1 [TP-040n] | 0.39 |
| O=C(Nc1ccc(N2CCC(C(=O)N3CCOCC3)CC2)cc1)c1cnc(Oc2ccccc2)nc1 | 0.64 |
| COC(=O)c1ccc2c(c1)NC(=O)/C2=C(\Nc1ccc(-c2nccn2C)cc1)c1ccccc1 | -0.37 |
| CC(C)(C#Cc1ccc(NC(=O)COc2ccccc2C(=O)c2ccccc2)c(Cl)c1)C(=O)O [BI 2439] | 0.81 |
| COc1ccc2nc3ccc(OC)cc3c(SCCCN)c2c1.Cl | -0.75 |
| CCn1c(CNC(=O)c2ncc(C)nc2N)[n+](CC)c2ccc(C(=O)N(C)CCN(C)C)cc21.Cl.Cl.[Cl-] | 0.97 |
| O=C1COc2cc(C(=O)N(Cc3ccc(C(=O)Nc4ccncn4)cc3)C3CC3)ccc2N1 | 0.74 |
| CC(C)S(=O)(=O)c1ccccc1Nc1nc(N[C@@H]2CCCN(CCCCCCCNC(=O)COc3cccc4c3C(=O)N(C3CCC(=O)NC3=O)C4=O)C2)ncc1Cl (stereo partly specified) | -0.41 |
| COc1cc([N+](=O)[O-])ccc1NC(=O)c1ccccc1O | -0.12 |
| CC(C)c1cnc(NC(=O)Cc2ccccc2)s1 | 0.86 |
| CN(C)CC#Cc1ccc2[nH]c3c(c2c1)-c1nc(N)ncc1CCC3 | -0.03 |
| C=C(C)[C@H]1CN[C@H](C(=O)O)[C@H]1CC(=O)O [KAINIC ACID] | 0.52 |
| O=C(O)Cc1ccc(CCNS(=O)(=O)c2ccc(Cl)cc2)cc1 [DALTROBAN] | 0.38 |
| N[C@@H](Cn1cc(F)c(=O)[nH]c1=O)C(=O)O | 0.99 |
| Nc1n[nH]c2nc(-c3ccc(NS(=O)(=O)c4cccc(Cl)c4Cl)cc3)cnc12 | 0.83 |
| CCN1C(=O)N(c2c(F)c(OC)cc(OC)c2F)Cc2cnc3[nH]c(CN4CCOCC4)cc3c21 [PEMIGATINIB] | 0.76 |
| NC(=O)OC[C@H](NC(=O)Cn1nc(-c2ccc(Cl)cc2)n(C[C@H](O)C(F)(F)F)c1=O)c1cccc(C(F)(F)F)c1 | 0.8 |
| Nc1ncc2c(n1)-c1c([nH]c3ccc(C4=CCOCC4)cc13)CCC2 | -0.13 |
| CCCNc1ccc2ncc(-c3ccncc3)n2n1 | -0.26 |

FYI, the data here is from ChEMBL document CHEMBL5303304.
